# Assay details: Selectivity index, ratio of CC50 for African green monkey Vero cells to EC50 for West Nile virus EG101
# Type: toxicity, cell-based
# Condition details: read-out: Selectivity Index
Readout label: selectivity ratio
Form: value (number only, do not type unit).

What value of measured selectivity ratio is listed for Oc1ccccc1C(Nc1nccs1)c1ccc2cccnc2c1O (stereo unspecified) ?
100

This collection of values is drawn from ChEMBL document CHEMBL1671623.
